system: P12-Ichikawa; experiment: AUC of viability dose-response curve (% viability x log10 dose units); higher = less sensitive; settings: RPMI 5 mM glucose + 10% dialyzed FBS; 48 h
quantity: AUC of viability dose-response curve
Note: the reply should be a number with no unit written.

Some molecules with recorded AUC of viability dose-response curve:
[
  {
    "molecule": "CN(C1CCc2c(c3ccccc3n2CC(=O)O)C1)[S+](=O)([O-])c1ccc(F)cc1 (stereo not given)",
    "assayed.system": "P12-Ichikawa",
    "AUC of viability dose-response curve": 419
  },
  {
    "molecule": "O=C1Cc2cc(CCN3CCN(c4nsc5ccccc45)CC3)c(Cl)cc2N1",
    "assayed.system": "P12-Ichikawa",
    "AUC of viability dose-response curve": 464
  },
  {
    "molecule": "C[C@H]1CN(C[C@@H](C)N1)C2=C(F)C3=C(C(=C2F)N)C(=O)\\C(=C/N3C4CC4)C(O)=O",
    "assayed.system": "P12-Ichikawa",
    "AUC of viability dose-response curve": 430
  },
  {
    "molecule": "COc1c(C)c2c(c(O)c1C/C=C(\\C)CCC(=O)OCCN1CCOCC1)C(=O)OC2",
    "assayed.system": "P12-Ichikawa",
    "AUC of viability dose-response curve": 400
  },
  {
    "molecule": "COc1ccc(-c2cc3c(C)nc(N)nc3n([C@H]3CC[C@H](OCCO)CC3)c2=O)cn1",
    "assayed.system": "P12-Ichikawa",
    "AUC of viability dose-response curve": 304
  }
]

May I ask what AUC of viability dose-response curve has been recorded for CCc1nc(C(N)=O)c(Nc2ccc(N3CCC(N4CCN(C)CC4)CC3)c(OC)c2)nc1NC1CCOCC1 ? 434

May I ask what AUC of viability dose-response curve has been recorded for O=C1N\N=C(\C[C@@H]2CCN(C2)C(=O)C3CC3)N1C4=CC=C(C=C4)C5=CC=C6OC=CC6=C5 ? 405

May I ask what AUC of viability dose-response curve has been recorded for CNC(=O)c1cc(Oc2ccc(NC(=O)Nc3ccc(Cl)c(C(F)(F)F)c3)c(F)c2)ccn1 ? 427

May I ask what AUC of viability dose-response curve has been recorded for OCCN1CCN(CCCN2c3ccccc3Sc3ccc(C(F)(F)F)cc32)CC1 ? 418

May I ask what AUC of viability dose-response curve has been recorded for N[C@@H](Cc1ccc(N(CCCl)CCCl)cc1)C(=O)O ? 387
